B1: REST corepressor 3, residues 87 to 134; numbered along this chain, Q9P2K3 (parent)
chain: DEWTVEDKVLFEQAFSFHGKSFHRIQQMLPDKTIASLVKYYYSWKKTR

# Variants of: B1
# assayDetails: abundance fitness (aPCA) (normalised: wild type 0, dead -1); higher = more abundant; growth selection in yeast, the domain comes from the species named
# experimentalSetup: Homo sapiens
measuredMetric: abundance fitness

> print(dat)
   mutationlist  observedvalue
1          A14C          -0.71
2           W3S         -0.651
3          K32W         -0.945
4          Q13E         -0.288
5          F11S         -0.736
6          V38N         -0.169
7          K39V         -0.741
